# target.entity: PI3Kδ (Homo sapiens)
# Sequence (O00329 1-1044): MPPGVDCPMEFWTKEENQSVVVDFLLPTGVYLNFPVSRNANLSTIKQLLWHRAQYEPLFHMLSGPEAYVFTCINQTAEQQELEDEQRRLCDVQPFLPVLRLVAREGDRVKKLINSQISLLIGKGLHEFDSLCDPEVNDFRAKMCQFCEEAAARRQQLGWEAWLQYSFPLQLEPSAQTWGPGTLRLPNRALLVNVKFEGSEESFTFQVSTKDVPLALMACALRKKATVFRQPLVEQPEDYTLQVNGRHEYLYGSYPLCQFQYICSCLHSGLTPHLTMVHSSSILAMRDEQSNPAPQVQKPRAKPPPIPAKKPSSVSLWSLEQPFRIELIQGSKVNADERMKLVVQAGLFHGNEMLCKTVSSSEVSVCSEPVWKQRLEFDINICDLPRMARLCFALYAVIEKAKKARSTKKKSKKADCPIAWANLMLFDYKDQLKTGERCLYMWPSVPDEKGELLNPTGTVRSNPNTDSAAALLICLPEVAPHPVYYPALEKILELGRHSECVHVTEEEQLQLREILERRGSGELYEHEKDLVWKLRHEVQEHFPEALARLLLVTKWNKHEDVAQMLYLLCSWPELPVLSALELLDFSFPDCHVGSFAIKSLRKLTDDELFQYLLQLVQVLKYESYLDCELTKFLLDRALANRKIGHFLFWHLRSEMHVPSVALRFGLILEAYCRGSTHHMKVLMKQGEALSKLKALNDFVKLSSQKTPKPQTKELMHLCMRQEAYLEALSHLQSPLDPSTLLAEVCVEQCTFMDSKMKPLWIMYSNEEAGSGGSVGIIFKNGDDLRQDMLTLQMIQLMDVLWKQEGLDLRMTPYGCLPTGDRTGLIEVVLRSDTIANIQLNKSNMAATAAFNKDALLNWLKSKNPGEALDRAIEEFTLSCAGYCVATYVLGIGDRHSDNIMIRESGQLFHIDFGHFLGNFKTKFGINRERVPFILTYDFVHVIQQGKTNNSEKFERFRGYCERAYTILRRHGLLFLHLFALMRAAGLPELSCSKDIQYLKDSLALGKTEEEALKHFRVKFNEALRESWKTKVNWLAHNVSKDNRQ
pKd: −log10 of the molar value.
observation.type: pKd

Recorded pKd, per entry:
{"compound": "Cc1ccc(NC(C)c2cc(C(=O)NCCO)cc3ncc(N4CCOCC4)nc23)cc1F (single isomer, unassigned) [Compound 295a]", "pKd": 5.17}
{"compound": "CC(C)NCCNC(=O)c1cc(C(C)Nc2cccc(F)c2)c2nc(N3CCOCC3)cnc2c1 (single isomer, unassigned) [Compound 227]", "pKd": 6.47}

I = CC(Nc1cc(F)cc(F)c1)c1cc(C(=O)NS(N)(=O)=O)cc2ncc(N3CCOCC3)nc12 (single isomer, unassigned) [Compound 243a]
II = CC(Nc1ccc(F)c(F)c1)c1cc(C(=O)NCCO)cc2ncc(N3CCOCC3)nc12 (stereo not drawn) [Compound 279]
III = CC(C)NCCNC(=O)c1cc(C(C)Oc2cccc(F)c2)c2nc(N3CCOCC3)cnc2c1 (single isomer, unassigned) [Compound 314a]
hey, can you rank those compounds up there by pKd? biggest number first please To answer, write out the labels according to the requested order.
I, II, III
(I: 7.16, II: 6.43, III: 5.22)

###

# target.entity: kinase enzymes (Homo sapiens)
# Construct: purchased DiscoveRx Corporation, San Diego (contract service, KINOMEscan)
# experimental.details: Enzyme binding assay (KINOMEscan, DiscoveRx), further kinases of Table A
# condition.context: PIK3Cγ_h
observation.type: Kd (µM)

{"compound": "OCCNCc1cc(C2CCCN2c2cc(F)cc(F)c2)c2nc(N3CCOCC3)cnc2c1 (centres unmarked)", "observation.type": "Kd", "val": 0.229}
{"compound": "CC1CN(C(=O)c2cc(C(C)Nc3ccc(F)c(F)c3)c3nc(N4CCOCC4)cnc3c2)CC(C)N1 (centres unmarked) [Compound 357b]", "observation.type": "Kd", "val": 8.13}
{"compound": "CCOC(=O)CNC(=O)c1cc(C(C)Nc2cccc(F)c2)c2nc(N3CCOCC3)cnc2c1 (centres unmarked) [Compound 392a]", "observation.type": "Kd", "val": 14.1}
{"compound": "CC(Nc1cc(F)c(F)c(F)c1)c1cc(C(=O)NCCN(C)C)cc2ncc(N3CCOCC3)nc12 (single isomer, unassigned) [Compound 309a]", "observation.type": "Kd", "val": 1.74}

a = CNCCN(C)C(=O)c1cc(C(C)Nc2cc(F)c(F)c(F)c2)c2nc(N3CCOCC3)cnc2c1 (single isomer, unassigned) [Compound 335b]
b = C[C@H](Nc1cc(F)cc(F)c1)c1cc(C(=O)NCCN(C)C)cc2ncc(N3CCOCC3)nc12
c = CN[C@H]1CCN(C(=O)c2cc(C(C)Nc3cc(F)c(F)c(F)c3)c3nc(N4CCOCC4)cnc3c2)C1 (some centres unmarked) [Compound 297]
hey, can you rank those compounds up there by Kd? biggest number first please To answer, write out the labels according to the requested order.
a, b, c
(a: 13.5 µM, b: 4.27 µM, c: 1.95 µM)

###

# target.entity: kinase enzymes (Homo sapiens)
# Construct: purchased DiscoveRx Corporation, San Diego (contract service, KINOMEscan)
# experimental.details: Enzyme binding assay (KINOMEscan, DiscoveRx), further kinases of Table A
# condition.context: MTOR_h
pKd: −log10 of the molar value.
observation.type: pKd

{"molecule": "CC(Oc1cccc(F)c1)c1cc(C(=O)N(C)C)cc2ncc(N3CCOCC3)nc12 (stereo not shown) [Compound 68]", "val": 4.65}

P = CNCCN(C)C(=O)c1cc(C(C)Nc2cc(F)c(F)c(F)c2)c2nc(N3CCOCC3)cnc2c1 (single isomer, unassigned) [Compound 335a]
Q = CC(Nc1cccc(F)c1)c1cc(C(=O)N(C)C)cc2ncc(N3CCOCC3)nc12 (stereo not shown) [Compound 85]
Looking only at measured pKd, which entry is lower, P or Q ? Identify your selection by its label.
P
(P: 4.73, Q: 6.25)

###

# pKd measurements, system: kinase enzymes (Homo sapiens)
pKd: −log10 of the molar value.
observation.type: pKd

Recorded pKd, per entry:
{"molecule": "CC1CN(c2cnc3cc(C(=O)N(C)C)cc(N4CCCC4c4cc(F)cc(F)c4)c3n2)CCO1 (stereo not shown) [Compound 396]", "pKd": 5.11}
{"molecule": "CCN1CCN(C(=O)c2cc(C(C)Oc3cccc(F)c3)c3nc(N4CCOCC4)cnc3c2)CC1 (single isomer, unassigned) [Compound 91]", "pKd": 5.35}
{"molecule": "Cc1cc(C)cc(NC(C)c2cc(C(=O)N3CCOCC3)cc3ncc(N4CCOCC4)nc23)c1 (stereo not shown) [Compound 126]", "pKd": 5.16}
{"molecule": "CC(Nc1cccc(F)c1)c1cc(C(=O)N2CC[C@@H](O)C2)cc2ncc(N3CCOCC3)nc12 (single isomer, unassigned) [Compound 321a]", "pKd": 6.08}

1 = CC(Nc1cc(F)c(F)c(F)c1)c1cc(C(=O)NCCN(C)C)cc2ncc(N3CCOCC3)nc12 (single isomer, unassigned) [Compound 309a]
2 = CC(C)NCCNC(=O)c1cc(C(C)Oc2ccc(F)c(F)c2)c2nc(N3CCOCC3)cnc2c1 (single isomer, unassigned) [Compound 286b]
3 = CNCC(O)c1cc(C2CCCN2c2cc(F)cc(F)c2)c2nc(N3CCOCC3)cnc2c1 (stereo not shown) [Compound 19]
hey, can you rank those molecules up there by pKd? biggest number first please To answer, write out the labels according to the requested order.
3, 1, 2
(3: 6.44, 1: 5.96, 2: 5.22)

###

# target.entity: PI3Kβ (Homo sapiens, UniProt P42338)
# Construct: purchased DiscoveRx Corporation, San Diego (contract service, KINOMEscan)
# Sequence (P42338 whole entry): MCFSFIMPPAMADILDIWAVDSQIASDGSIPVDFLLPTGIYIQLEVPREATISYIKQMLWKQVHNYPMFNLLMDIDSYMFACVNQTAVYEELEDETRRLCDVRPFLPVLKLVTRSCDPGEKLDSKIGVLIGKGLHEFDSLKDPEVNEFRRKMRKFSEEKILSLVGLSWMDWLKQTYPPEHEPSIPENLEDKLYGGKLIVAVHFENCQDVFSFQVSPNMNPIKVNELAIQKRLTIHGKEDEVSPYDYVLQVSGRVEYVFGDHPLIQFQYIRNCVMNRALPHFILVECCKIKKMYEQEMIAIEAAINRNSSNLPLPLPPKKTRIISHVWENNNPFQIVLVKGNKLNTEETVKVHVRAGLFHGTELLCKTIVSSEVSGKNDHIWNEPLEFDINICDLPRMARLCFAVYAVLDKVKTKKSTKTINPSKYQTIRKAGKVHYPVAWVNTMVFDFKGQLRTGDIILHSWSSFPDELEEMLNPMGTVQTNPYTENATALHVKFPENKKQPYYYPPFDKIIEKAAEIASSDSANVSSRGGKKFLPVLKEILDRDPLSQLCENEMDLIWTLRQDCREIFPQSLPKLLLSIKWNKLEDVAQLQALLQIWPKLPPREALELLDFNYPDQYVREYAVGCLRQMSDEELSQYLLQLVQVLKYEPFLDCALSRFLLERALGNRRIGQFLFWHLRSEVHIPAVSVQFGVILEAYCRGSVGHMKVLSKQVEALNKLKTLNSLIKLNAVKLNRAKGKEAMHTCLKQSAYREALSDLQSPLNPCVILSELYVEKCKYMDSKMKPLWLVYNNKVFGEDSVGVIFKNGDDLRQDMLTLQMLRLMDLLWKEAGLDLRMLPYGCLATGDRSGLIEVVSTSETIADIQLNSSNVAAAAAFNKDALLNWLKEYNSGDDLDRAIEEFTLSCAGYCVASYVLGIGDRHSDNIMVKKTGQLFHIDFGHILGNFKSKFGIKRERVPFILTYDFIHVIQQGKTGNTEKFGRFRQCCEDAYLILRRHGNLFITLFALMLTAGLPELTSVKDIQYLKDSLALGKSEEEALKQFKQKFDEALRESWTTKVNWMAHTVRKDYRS
# experimental.details: Enzyme binding assay (KINOMEscan, DiscoveRx)
# condition.context: PIK3Cβ_h, read-out: Kd PIK3Cβ_h
observation.type: Kd (µM)

Recorded Kd, per entry:
{"compound": "CC(Oc1cccc(F)c1)c1cc(C(=O)N(C)C)cc2ncc(N3CCOCC3)nc12 (single isomer, unassigned) [Compound 339b]", "observation.type": "Kd", "val": 0.316}
{"compound": "CC(Nc1ccc(F)c(F)c1)c1cc(C(=O)NCC(C)(C)O)cc2ncc(N3CCOCC3)nc12 (single isomer, unassigned) [Compound 348b]", "observation.type": "Kd", "val": 1.32}

1 = COCCNC(=O)c1cc(C(C)Nc2cc(F)cc(F)c2)c2nc(N3CCOCC3)cnc2c1 (single isomer, unassigned) [Compound 204]
2 = CN[C@H]1CCN(C(=O)c2cc(C(C)Nc3ccc(F)c(F)c3)c3nc(N4CCOCC4)cnc3c2)C1 (mixture of isomers) [Compound 365]
3 = CN(CCO)Cc1cc(C2CCCN2c2cc(F)cc(F)c2)c2nc(N3CCOCC3)cnc2c1 (stereo not drawn)
4 = CC(Nc1cc(F)cc(F)c1)c1cc(CO)cc2ncc(N3CCOCC3)nc12 (single isomer, unassigned) [Compound 154b]
hey, can you rank those compounds up there by Kd? biggest number first please To answer, write out the labels according to the requested order.
1, 4, 2, 3
